Tested on: Enterobacter RO 154
assay: MIC, in vitro dilution method, Enterobacter RO 154 (Table III)
Format: cell-based
condition-set: RO154; Enterobacter RO 154; dilution method; read-out: MIC
endpoint: log10 of MIC (log10 of the value in µg/mL)
Could you please treat all values as log10 of MIC in µg/mL?

[in] Can you share its log10 of MIC? I mean this compound: CC(C)(O/N=C(\C(=O)NC1C(=O)N2C(C(=O)O)=C(COC(=O)CCCCN)C[S+]([O-])C12)c1csc(N)n1)C(=O)O (stereo not drawn)
[out] 0.30

[in] Try NCC(=O)Nc1cccc(C(=O)SCC2=C(C(=O)O)N3C(=O)C(NC(=O)C(=NOC4(C(=O)O)CCC4)c4csc(N)n4)C3[S+]([O-])C2)c1 (stereo not drawn) next.
[out] 0.30

[in] Try CN(C(=O)CN)c1ccc(C(=O)OCC2=C(C(=O)O)N3C(=O)C(NC(=O)C(=NOC(C)(C)C(=O)O)c4csc(N)n4)C3[S+]([O-])C2)cc1 (stereo not drawn) next.
[out] 0.60

[in] Try CC(N)CC(=O)OCC1=C(C(=O)O)N2C(=O)C(NC(=O)C(=NOC(C)(C)C(=O)O)c3csc(N)n3)C2[S+]([O-])C1 (stereo not drawn) next.
[out] 0.30

[in] Try CC(N)C(=O)Nc1ccc(C(=O)OCC2=C(C(=O)O)N3C(=O)C(NC(=O)C(=NOC(C)(C)C(=O)O)c4csc(N)n4)C3[S+]([O-])C2)cc1 (stereo not drawn) next.
[out] 0.60

[in] Try CNCC(=O)Nc1ccc(C(=O)OCC2=C(C(=O)O)N3C(=O)C(NC(=O)C(=NOC(C)(C)C(=O)O)c4csc(N)n4)C3[S+]([O-])C2)cc1 (stereo not drawn) next.
[out] 0.30

[in] Try CC(C)(ON=C(C(=O)NC1C(=O)N2C(C(=O)O)=C(COC(=O)c3ccc(NC(=O)CCCCN)cc3)C[S+]([O-])C12)c1csc(N)n1)C(=O)O (stereo not drawn) next.
[out] 0.60

[in] Try CC(C)(ON=C(C(=O)NC1C(=O)N2C(C(=O)O)=C(CSC(=O)c3ccc(CN)cc3)C[S+]([O-])C12)c1csc(N)n1)C(=O)O (stereo not drawn) next.
[out] 0.90

[in] Try CC(C)(O/N=C(\C(=O)NC1C(=O)N2C(C(=O)O)=C(COC(=O)C3CCNCC3)C[S+]([O-])C12)c1csc(N)n1)C(=O)O (stereo not drawn) next.
[out] 0.00

[in] Try Cc1c(CN)cccc1C(=O)SCC1=C(C(=O)O)N2C(=O)C(NC(=O)C(=NOC(C)(C)C(=O)O)c3csc(N)n3)C2[S+]([O-])C1 (stereo not drawn) next.
[out] -0.30

----------
Tested on: Enterobacter RO 154
assay: MIC, in vitro dilution method, Enterobacter RO 154 (Table III)
Type: cell-based
condition-set: RO154; Enterobacter RO 154; dilution method; read-out: MIC
endpoint: MIC (µg/mL)
Please reply with the bare figure in µg/mL and do not write the unit itself.

[in] Could you share what MIC was measured for CC(C)(ON=C(C(=O)NC1C(=O)N2C(C(=O)O)=C(COC(=O)c3ccc(NC(=O)CCN)cc3)C[S+]([O-])C12)c1csc(N)n1)C(=O)O (stereo not drawn) [42 546] , tested on Enterobacter RO 154?
[out] 0.25

[in] Try CC(C)(ON=C(C(=O)NC1C(=O)N2C(C(=O)O)=C(CSC(=O)C3CCC(CN)CC3)C[S+]([O-])C12)c1csc(N)n1)C(=O)O (stereo not drawn) [compound 42118] next.
[out] 16

[in] Try CC(C)(ON=C(C(=O)NC1C(=O)N2C(C(=O)O)=C(COC(=O)C3CCN(C(=O)CCN)CC3)C[S+]([O-])C12)c1csc(N)n1)C(=O)O (stereo not drawn) [42 782] next.
[out] 2

[in] Try CC(C)(O/N=C(\C(=O)NC1C(=O)N2C(C(=O)O)=C(COC(=O)c3cccc(NC(=O)CCN)c3)C[S+]([O-])C12)c1csc(N)n1)C(=O)O (stereo not drawn) [42 465] next.
[out] 0.5

[in] Try Cc1c(NC(=O)CCN)cccc1C(=O)OCC1=C(C(=O)O)N2C(=O)C(NC(=O)C(=NOC(C)(C)C(=O)O)c3csc(N)n3)C2[S+]([O-])C1 (stereo not drawn) [42 586] next.
[out] 16

[in] Try Nc1nc(/C(=N/OC2(C(=O)O)CCC2)C(=O)NC2C(=O)N3C(C(=O)O)=C(COC(=O)CC4CCCCN4)C[S+]([O-])C23)cs1 (stereo not drawn) [42 471] next.
[out] 0.25
